assay: in vivo; conditions: rat, brain/blood
Description: Ratio of brain AUC (0 to t) to blood AUC (0 to t) in rat
QUANTITY_KIND: Kp

Some solved cases for reference:
COMPOUND | Kp
CC(C)S(=O)(=O)NC1Cc2ccc(-c3cccnc3F)cc2C1 (stereo not drawn) | 1.5
CC(C)S(=O)(=O)N[C@H]1Cc2ccc(-c3ccc(F)nc3)cc2C1 | 2.1

*Q* Item under review: `CC(C)S(=O)(=O)N[C@H]1Cc2ccc(-c3ccc(F)cn3)cc2C1` . Reported Kp?
*A* 1.4
